For each entry below, report its normalized growth value.
protocol-summary: chemical genetic growth profiling, strain panel (AID 1159580);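 also: tested at 20 µM; growth read once vehicle control cultures reached saturation at 30 °C; 1 = growth at the plate median or of vehicle wells; lower values mean less growth of the strain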
condition-parameters: S. cerevisiae deletion strains, growth OD, locus YHR094C, strain hxt1, hits give low values
About 2,000 (36%) of roughly 5,500 compounds were called active. Inconclusive results (about 18%) are left out. The list shows a part of the results.
Numbers only.

Previously resolved entries follow.
>>> value_reported("Oc1cc2c(cc1O)C1c3ccc(O)c(O)c3OCC1(O)C2 (stereo not drawn)")
1.01
>>> value_reported("CCOC(=O)NC1=C(C2CC2)C(=O)C(NC(=O)OCC)=C(C2CC2)C1=O")
0.976
>>> value_reported("CC/C(=C(/CC)c1ccc(O)cc1)c1ccc(O)cc1")
1

Go through the list and state normalized growth for each entry.
1. COc1ccc(-c2cc(=O)c3c(O)cc(O[C@H]4O[C@H](CO[C@@H]5O[C@@H](C)[C@H](O)[C@@H](O)[C@H]5O)[C@@H](O)[C@H](O)[C@H]4O)cc3o2)cc1
2. CCCCCc1c2c(cc(O)c1C(=O)O)OC(=O)c1c(cc(OC)cc1C(=O)CCCC)O2
3. CN1C(C)(C)CCCC1(C)C
4. CC(=O)Oc1ccc2c(c1C(C)C)CCC1C(C)(C)CCC[C@]21C (stereo partly drawn)

Marked response:
[1.01, 0.983, 1, 1]
